B1: ANKRD44 (parent)
chain: FHCIETLVTTGANVNETDDWGRTA

- Variants of: B1
- Assay details: protein stability index of a GFP-peptide fusion (GPS, HEK-293T) (PSI 1-6); higher = more stable;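 further: lentivirally expressed fusions sorted by FACS into six bins by GFP to DsRed ratio, PSI derived from sequencing read proportions per bin multiplied by bin number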
- Experimental conditions: c terminus: a fixed tail appended
# protein stability index >= 2 gives True, anything below gives False

D18A: True

Is the recorded value of protein stability index equal to or greater than 2 for this variant? R22P
True

Is the recorded value of protein stability index equal to or greater than 2 for this variant? T9M
False

Is the recorded value of protein stability index equal to or greater than 2 for this variant? T10D
True

Reference source: the supplement of paper PMC10567573
